Log 1/C values, listed per item
- Test system: Escherichia coli
- TEST DESCRIPTION: Inhibition of growth of methotrexate-sensitive (MB1417) strain of Escherichia coli cells.
- Type: functional
PARAMETER MEASURED: Log 1/C

INSERT INTO results (compound, assay_value) VALUES
  ('Nc1ncc(Cc2ccc([N+](=O)[O-])cc2)c(N)n1', 4.53),
  ('CC1(C)N=C(N)N=C(N)N1c1ccc(Cl)cc1 [CYCLOGUANIL]', 2.47),
  ('Cc1nc(N)nc(N)c1-c1ccc(Cl)c(Cl)c1 [METOPRINE]', 4.24),
  ('Nc1ncc(Cc2cccc(O)c2)c(N)n1', 4.35),
  ('CC1(C)N=C(N)N=C(N)N1c1cccc(OCCOc2cccc(C(F)(F)F)c2)c1', 4.01),
  ('CCCCCCOc1cccc(Cc2cnc(N)nc2N)c1', 4.81),
  ('COc1cc(Cc2cnc(N)nc2N)cc(OC)c1', 6.08),
  ('COc1ccc(OC)c(Cc2cnc3nc(N)nc(N)c3c2C)c1 [PIRITREXIM]', 5.95),
  ('CCOc1cc(Cc2cnc(N)nc2N)ccc1OCc1ccccc1', 5.04),
  ('CCc1nc(N)nc(N)c1-c1ccc(Cl)cc1 [PYRIMETHAMINE]', 4.21),
  ('CCCCCCOc1ccc(Cc2cnc(N)nc2N)cc1', 4.79);

----------
Quick record of Log 1/Ki app values for Dihydrofolate reductase type 1 (Escherichia coli) (UniProt P00382).
PARAMETER MEASURED: Log 1/Ki app

INSERT INTO measurements (smiles_str, assay_value) VALUES
  ('CCCCCCCCCCCCOc1cccc(N2C(N)=NC(N)=NC2(C)C)c1', 5.88),
  ('CC1(C)N=C(N)N=C(N)N1c1cccc(COc2cccc(NC(=N)S)c2)c1', 6.17),
  ('CCCCCCCCCCCOc1cccc(N2C(N)=NC(N)=NC2(C)C)c1', 6.19),
  ('Cc1cccc(OCc2cccc(N3C(N)=NC(N)=NC3(C)C)c2)c1', 6.27),
  ('CC1(C)N=C(N)N=C(N)N1c1cccc(COc2cccc(C#N)c2)c1', 6.05),
  ('CC1(C)N=C(N)N=C(N)N1c1cccc(COc2cccc(Cl)c2)c1', 6.01),
  ('CC1(C)N=C(N)N=C(N)N1c1cccc(COc2cccc(CO)c2)c1', 6.19),
  ('CC1(C)N=C(N)N=C(N)N1c1cccc(COc2cccc(NC(N)=O)c2)c1', 5.91),
  ('CCc1cccc(OCc2cccc(N3C(N)=NC(N)=NC3(C)C)c2)c1', 5.95),
  ('COc1cccc(OCc2cccc(N3C(N)=NC(N)=NC3(C)C)c2)c1', 6.02),
  ('CC(C)(C)c1cccc(OCc2cccc(N3C(N)=NC(N)=NC3(C)C)c2)c1', 6.06),
  ('Cc1cccc(SCc2cccc(N3C(N)=NC(N)=NC3(C)C)c2)c1', 6.57),
  ('CCOCc1cccc(N2C(N)=NC(N)=NC2(C)C)c1', 5.92),
  ('CCCCCCCCCCCCCCOc1cccc(N2C(N)=NC(N)=NC2(C)C)c1', 5.85),
  ('CC1(C)N=C(N)N=C(N)N1c1cccc(OCc2ccc(Cl)c(Cl)c2)c1', 6.15);
